# MEASURED TARGET: KRAS G12C (Homo sapiens, UniProt P01116, G12C)
# Construct: 4 nM KRAS; aa1-188 containing the G12V, G12C, G12A or G12S amino acid substitution
# Sequence (P01116 1-188 isoform P01116-2 G12C): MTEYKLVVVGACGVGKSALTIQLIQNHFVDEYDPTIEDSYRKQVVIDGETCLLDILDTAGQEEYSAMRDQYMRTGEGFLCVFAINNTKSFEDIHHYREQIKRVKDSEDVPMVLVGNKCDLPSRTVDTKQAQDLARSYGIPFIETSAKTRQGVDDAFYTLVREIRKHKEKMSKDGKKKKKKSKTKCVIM
# ASSAY REMARKS: HTRF nucleotide exchange assay (NEA), KRAS G12C
# Assay type: biochemical
REPORTED PROPERTY: IC50

Please indicate IC50 recorded for C#Cc1c(F)ccc2cc(O)cc(-c3ncc4c(N5CCCNC(=O)C5)nc(OC[C@@]56CCCN5C[C@H](F)C6)nc4c3F)c12 (relative stereo)
≤ 10 nM

Please indicate IC50 recorded for "N#CC1CCN(c2nc(OCC34CCCN3CCC4)nc3c(F)c(-c4cc(O)cc5ccccc45)ncc23)CC1"
10 to 100 nM

Please indicate IC50 recorded for Oc1cc(-c2ncc3c(N4CCCC(O)CC4)nc(OCC45CCCN4CCC5)nc3c2F)c2ccccc2c1 (centres unmarked)
10 to 100 nM

Please indicate IC50 recorded for "Oc1cc(-c2ncc3c(N4CCCCCC4)nc(OCC45CCCN4CCC5)nc3c2F)c2ccccc2c1"
10 to 100 nM

Please indicate IC50 recorded for "Oc1cc(-c2ncc3c(N4CCCCC4)nc(OCC45CCCN4CCC5)nc3c2F)c2ccccc2c1"
10 to 100 nM

====

# MEASURED TARGET: KRAS WT (Homo sapiens, UniProt P01116)
# Construct: Recombinant human RAS protein (2 nM); aa1-188 KRAS WT
# Sequence (P01116 1-188 isoform P01116-2): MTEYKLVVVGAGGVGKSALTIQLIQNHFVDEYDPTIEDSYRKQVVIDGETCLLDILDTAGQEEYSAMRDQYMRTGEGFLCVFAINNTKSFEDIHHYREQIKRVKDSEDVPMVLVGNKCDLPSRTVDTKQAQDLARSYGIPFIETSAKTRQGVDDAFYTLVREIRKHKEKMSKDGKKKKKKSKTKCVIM
# ASSAY REMARKS: HTRF nucleotide exchange assay (NEA), KRAS WT
# Assay type: biochemical
This listing pairs molecules with measured IC50.

INSERT INTO measurements (molecule, reported_property, value) VALUES
  ('CN1CCCN(c2nc(OCC34CCCN3CCC4)nc3c(F)c(-c4cc(O)cc5ccccc45)ncc23)CC1=O', 'IC50', '0.1 to 10 µM'),
  ('Oc1cc(-c2ncc3c(N4CCc5[nH]ncc5C4)nc(OCC45CCCN4CCC5)nc3c2F)c2ccccc2c1', 'IC50', '0.1 to 10 µM'),
  ('OCCCNc1nc(OCC23CCCN2CCC3)nc2c(F)c(-c3cc(O)cc4ccccc34)ncc12', 'IC50', '0.1 to 10 µM'),
  ('COC1CCN(c2nc(OCC34CCCN3CCC4)nc3c(F)c(-c4cc(O)cc5ccccc45)ncc23)CC1', 'IC50', '0.1 to 10 µM'),
  ('Oc1cc(-c2ncc3c(N4CCC5(CCOC5)C4)nc(OCC45CCCN4CCC5)nc3c2F)c2ccccc2c1 (stereo not drawn)', 'IC50', '0.1 to 10 µM'),
  ('COC(C)CCNc1nc(OCC23CCCN2CCC3)nc2c(F)c(-c3cc(O)cc4ccccc34)ncc12 (stereo not drawn)', 'IC50', '0.1 to 10 µM'),
  ('Nc1nc2c(-c3ncc4c(N5CCCOCC5)nc(OC[C@@]56CCCN5C[C@H](F)C6)nc4c3F)cccc2s1 (relative stereo)', 'IC50', '0.1 to 10 µM'),
  ('Oc1cc(-c2ncc3c(N4CCn5ccnc5C4)nc(OCC45CCCN4CCC5)nc3c2F)c2ccccc2c1', 'IC50', '0.1 to 10 µM');

Please indicate IC50 recorded for "Oc1cc(-c2ncc3c(NC4CCOCC4)nc(OCC45CCCN4CCC5)nc3c2F)c2ccccc2c1"
0.1 to 10 µM

Please indicate IC50 recorded for CC1CC(O)CCN1c1nc(OCC23CCCN2CCC3)nc2c(F)c(-c3cc(O)cc4ccccc34)ncc12 (stereo not drawn)
0.1 to 10 µM

Please indicate IC50 recorded for "Oc1cc(-c2ncc3c(N4CCn5nccc5C4)nc(OCC45CCCN4CCC5)nc3c2F)c2ccccc2c1"
0.1 to 10 µM

Please indicate IC50 recorded for "CC(C)OCCCNc1nc(OCC23CCCN2CCC3)nc2c(F)c(-c3cc(O)cc4ccccc34)ncc12"
0.1 to 10 µM

Please indicate IC50 recorded for "COC(=O)CCNc1nc(OCC23CCCN2CCC3)nc2c(F)c(-c3cc(O)cc4ccccc34)ncc12"
0.1 to 10 µM

Please indicate IC50 recorded for "Nc1nc2c(-c3ncc4c(N5CCCOCC5)nc(OCC56CCCN5CCC6)nc4c3F)cccc2s1"
0.1 to 10 µM

Please indicate IC50 recorded for "O=S1(=O)CCN(c2nc(OCC34CCCN3CCC4)nc3c(F)c(-c4cc(O)cc5ccccc45)ncc23)CC1"
0.1 to 10 µM
